Test system: PBMC (peripheral blood mononuclear cells)
test_details: two-way mixed lymphocyte reaction (MLR), immune suppression
Format: cell-based
run_conditions: Homo sapiens, 144 h, allogeneic stimulation of PBMC, 6 days
readout_kind: IC50

Request: Give the reported value of IC50 for this record: Cn1cnc2c1c(=O)n(CCCCC(=O)CCl)c(=O)n2C
Result: < 10 µM

---

Test system: human lymphocytes
test_details: inhibition of blast formation from human lymphocytes stimulated by anti-CD3 antibody
Format: cell-based
run_conditions: Lymphocyte, FIG. 10, read-out: IC50, blastogenesis stimulated by anti-CD3
readout_kind: IC50

Request: Please look at Cn1cnc2c1c(=O)n(CCCCC(=O)CCl)c(=O)n2C and tell me its recorded IC50 on human lymphocytes.
Result: < 5 µM
